- System: HCC-78
- TEST_DETAILS: relative viability (nuclei count vs DMSO), 5 days (fraction); higher = more cells survive
- MEASUREMENT_CONDITIONS: first compound 8 µM
MEASUREMENT_KIND: relative viability

Need relative viability of CCCCCCCCCCCC1=C(O)C(=O)C=C(O)C1=O [Embelin] + Nc1nc2[nH]cc(CCc3ccc(C(=O)N[C@@H](CCC(=O)O)C(=O)O)cc3)c2c(=O)[nH]1 [Pemetrexed] (partner 0.2 µM) , thanks.
0.949

Return reported relative viability; argument: CCCCCCCCCCCC1=C(O)C(=O)C=C(O)C1=O [Embelin] + Cc1cc(Nc2cc(N3CCN(C)CC3)nc(Sc3ccc(NC(=O)C4CC4)cc3)n2)n[nH]1 [Tozasertib] (partner 0.1 µM)
0.437

Requested field: relative viability. Item: CCCCCCCCCCCC1=C(O)C(=O)C=C(O)C1=O [Embelin] + COc1cccc2cc(-c3nc([C@H]4CC[C@H](C(=O)O)CC4)n4ncnc(N)c34)[nH]c12 [OSI-027] (partner 0.5 µM)
0.41

Fill in: relative viability of CCCCCCCCCCCC1=C(O)C(=O)C=C(O)C1=O [Embelin] + CC(=O)c1c(C)c2cnc(Nc3ccc(N4CCNCC4)cn3)nc2n(C2CCCC2)c1=O [Palbociclib] (partner 0.5 µM) is ___
0.48

* * *

The entries below are paired with their reported relative viability.
- Test system: PC-14
- TEST_DETAILS: relative viability (nuclei count vs DMSO), 5 days (fraction); higher = more cells survive
- MEASUREMENT_CONDITIONS: first compound 0.01 µM
// no unit string in output, number only

MOLECULE	MEASUREMENT_KIND	TEST_VALUE
CC(C)Oc1cc(Nc2nc(N[C@@H](C)c3ccc(F)cn3)ncc2Cl)n[nH]1 [AZ23] + Cc1nc(NC(=O)N2CCC[C@H]2C(N)=O)sc1-c1ccnc(C(C)(C)C(F)(F)F)c1 [Alpelisib] (partner 2 µM)	relative viability	0.897
CC(C)Oc1cc(Nc2nc(N[C@@H](C)c3ccc(F)cn3)ncc2Cl)n[nH]1 [AZ23] + CC(=O)Nc1cccc(-n2c(=O)n(C3CC3)c(=O)c3c(Nc4ccc(I)cc4F)n(C)c(=O)c(C)c32)c1 [Trametinib] (partner 0.02 µM)	relative viability	0.599
CC(C)Oc1cc(Nc2nc(N[C@@H](C)c3ccc(F)cn3)ncc2Cl)n[nH]1 [AZ23] + C[C@@H](Oc1cc(-c2cnn(C3CCNCC3)c2)cnc1N)c1c(Cl)ccc(F)c1Cl [Crizotinib] (partner 1 µM)	relative viability	0.896

Moving on to another molecule below.
// lookup relative viability for CC(C)Oc1cc(Nc2nc(N[C@@H](C)c3ccc(F)cn3)ncc2Cl)n[nH]1 [AZ23] + Nc1nc2[nH]cc(CCc3ccc(C(=O)N[C@@H](CCC(=O)O)C(=O)O)cc3)c2c(=O)[nH]1 [Pemetrexed] (partner 0.2 µM)
0.127

* * *

// values below are reported relative viability
- Test system: LC-2-ad
- TEST_DETAILS: relative viability (nuclei count vs DMSO), 5 days (fraction); higher = more cells survive
- MEASUREMENT_CONDITIONS: first compound 0.8 µM
Answer with the value's number alone.

Before answering, review these 3 worked examples.
COMPOUND	ASSAY_SYSTEM	TEST_VALUE
CCCCCCCCCCCC1=C(O)C(=O)C=C(O)C1=O [Embelin] + C[C@@H](Oc1cc(-c2cnn(C3CCNCC3)c2)cnc1N)c1c(Cl)ccc(F)c1Cl [Crizotinib] (partner 1 µM)	LC-2-ad	0.564
CCCCCCCCCCCC1=C(O)C(=O)C=C(O)C1=O [Embelin] + Cc1nc(Nc2ncc(C(=O)Nc3c(C)cccc3Cl)s2)cc(N2CCN(CCO)CC2)n1 [Dasatinib] (partner 0.075 µM)	LC-2-ad	0.837
CCCCCCCCCCCC1=C(O)C(=O)C=C(O)C1=O [Embelin] + CC(C)C[C@H](NC(=O)[C@H](Cc1ccccc1)NC(=O)c1cnccn1)B(O)O [Bortezomib] (partner 0.002 µM)	LC-2-ad	1.1

Attention now shifts to the item below.
Please look up its relative viability: CCCCCCCCCCCC1=C(O)C(=O)C=C(O)C1=O [Embelin] + O=C(CCCCCCC(=O)Nc1ccccc1)NO [Vorinostat] (partner 1 µM)
0.695

* * *

- Tested on: NCI-H2405
- TEST_DETAILS: relative viability (nuclei count vs DMSO), 5 days (fraction); higher = more cells survive
- MEASUREMENT_CONDITIONS: first compound 0.8 µM
MEASUREMENT_KIND: relative viability
Lab note: record the figure alone, no unit after it.

As a guide, the following entries are already answered.
MOLECULE	relative viability
CCCCCCCCCCCC1=C(O)C(=O)C=C(O)C1=O [Embelin] + CS(=O)(=O)N1CCN(Cc2cc3nc(-c4cccc5[nH]ncc45)nc(N4CCOCC4)c3s2)CC1 [Pictilisib] (partner 1 µM)	0.59
CCCCCCCCCCCC1=C(O)C(=O)C=C(O)C1=O [Embelin] + CS(=O)(=O)CCNCc1ccc(-c2ccc3ncnc(Nc4ccc(OCc5cccc(F)c5)c(Cl)c4)c3c2)o1 [Lapatinib] (partner 2 µM)	1.48
CCCCCCCCCCCC1=C(O)C(=O)C=C(O)C1=O [Embelin] + O=C(CCCCCCC(=O)Nc1ccccc1)NO [Vorinostat] (partner 1 µM)	1.13

Query: relative viability; subject: CCCCCCCCCCCC1=C(O)C(=O)C=C(O)C1=O [Embelin] + CC(=O)Nc1cccc(-n2c(=O)n(C3CC3)c(=O)c3c(Nc4ccc(I)cc4F)n(C)c(=O)c(C)c32)c1 [Trametinib] (partner 0.02 µM)
0.778

Item CCCCCCCCCCCC1=C(O)C(=O)C=C(O)C1=O [Embelin] + Cc1nc(Nc2ncc(C(=O)Nc3c(C)cccc3Cl)s2)cc(N2CCN(CCO)CC2)n1 [Dasatinib] (partner 0.075 µM) has what recorded relative viability?
0.24

Return reported relative viability; argument: CCCCCCCCCCCC1=C(O)C(=O)C=C(O)C1=O [Embelin] + C[C@]1(O)C[C@@H](c2nc(-c3ccc4ccc(-c5ccccc5)nc4c3)c3c(N)nccn32)C1 [Linsitinib] (partner 1 µM)
1.16

Which value of relative viability has been reported for CCCCCCCCCCCC1=C(O)C(=O)C=C(O)C1=O [Embelin] + CCNC(=O)c1noc(-c2cc(C(C)C)c(O)cc2O)c1-c1ccc(CN2CCOCC2)cc1 [Luminespib] (partner 0.01 µM) in the records?
0.681

* * *

- Test system: NCI-H2009
- TEST_DETAILS: relative viability (nuclei count vs DMSO), 5 days (fraction); higher = more cells survive
- MEASUREMENT_CONDITIONS: first compound 0.3162 µM
MEASUREMENT_KIND: relative viability
Just the number, please, no unit after it.

Look over these answered cases.
MOLECULE	relative viability
CC(C)Oc1cc(Nc2nc(N[C@@H](C)c3ccc(F)cn3)ncc2Cl)n[nH]1 [AZ23] + CC1(C)CCC(c2ccc(Cl)cc2)=C(CN2CCN(c3ccc(C(=O)NS(=O)(=O)c4ccc(N[C@H](CCN5CCOCC5)CSc5ccccc5)c(S(=O)(=O)C(F)(F)F)c4)cc3)CC2)C1 [Navitoclax] (partner 0.5 µM)	1.19
CC(C)Oc1cc(Nc2nc(N[C@@H](C)c3ccc(F)cn3)ncc2Cl)n[nH]1 [AZ23] + C[C@@H](Oc1cc(-c2cnn(C3CCNCC3)c2)cnc1N)c1c(Cl)ccc(F)c1Cl [Crizotinib] (partner 1 µM)	1.06
CC(C)Oc1cc(Nc2nc(N[C@@H](C)c3ccc(F)cn3)ncc2Cl)n[nH]1 [AZ23] + Cc1nc(NC(=O)N2CCC[C@H]2C(N)=O)sc1-c1ccnc(C(C)(C)C(F)(F)F)c1 [Alpelisib] (partner 2 µM)	1.19

Data request, read-out relative viability, for CC(C)Oc1cc(Nc2nc(N[C@@H](C)c3ccc(F)cn3)ncc2Cl)n[nH]1 [AZ23] + Nc1nc2[nH]cc(CCc3ccc(C(=O)N[C@@H](CCC(=O)O)C(=O)O)cc3)c2c(=O)[nH]1 [Pemetrexed] (partner 0.2 µM)
1.02

* * *

- Tested on: BEN
- TEST_DETAILS: relative viability (nuclei count vs DMSO), 5 days (fraction); higher = more cells survive
- MEASUREMENT_CONDITIONS: first compound 0.01 µM
Label key: true (1) means relative viability under 0.8; false (0) means relative viability of 0.8 or more.

COMPOUND	CLASS_NAME
CC(C)Oc1cc(Nc2nc(N[C@@H](C)c3ccc(F)cn3)ncc2Cl)n[nH]1 [AZ23] + O=C(CCCCCCC(=O)Nc1ccccc1)NO [Vorinostat] (partner 1 µM)	true (1)
CC(C)Oc1cc(Nc2nc(N[C@@H](C)c3ccc(F)cn3)ncc2Cl)n[nH]1 [AZ23] + CC(=O)c1c(C)c2cnc(Nc3ccc(N4CCNCC4)cn3)nc2n(C2CCCC2)c1=O [Palbociclib] (partner 0.5 µM)	true (1)
CC(C)Oc1cc(Nc2nc(N[C@@H](C)c3ccc(F)cn3)ncc2Cl)n[nH]1 [AZ23] + N=C(N)NC(=N)NCCc1ccccc1 [Phenformin] (partner 250 µM)	true (1)

Answer whether the compound CC(C)Oc1cc(Nc2nc(N[C@@H](C)c3ccc(F)cn3)ncc2Cl)n[nH]1 [AZ23] + C[C@@H](Oc1cc(-c2cnn(C3CCNCC3)c2)cnc1N)c1c(Cl)ccc(F)c1Cl [Crizotinib] (partner 1 µM) has relative viability strictly less than 0.8
false (0)

Take the compound CC(C)Oc1cc(Nc2nc(N[C@@H](C)c3ccc(F)cn3)ncc2Cl)n[nH]1 [AZ23] + Nc1nc2[nH]cc(CCc3ccc(C(=O)N[C@@H](CCC(=O)O)C(=O)O)cc3)c2c(=O)[nH]1 [Pemetrexed] (partner 0.2 µM) and say whether its relative viability is less than 0.8.
true (1)
